These data points were gathered from the Immune Epitope Database (IEDB).

# test_target: HLA-A*31:01
# test_name: IEDB peptide-MHC binding, purified MHC/competitive/radioactivity; filed as Kd, often an IC50 or EC50 that approximates it; bounds were set here for any values at or beyond the usual limits of such assays
# run_conditions: source organism: Vaccinia virus WR
What log10 of Kd was measured for each of the following?
Log scale reminder: Kd in nM, then log10 taken.

Exercise: Specify log10 of Kd for RFVKFNDYRK and stop.
Solution: 1.57

Exercise: Specify log10 of Kd for NLDLFMSHVK and stop.
Solution: 3.89

Exercise: Specify log10 of Kd for ATKRYPGVMY and stop.
Solution: 4.26

Exercise: Specify log10 of Kd for RSTAIKVTK and stop.
Solution: 0.10

Exercise: Specify log10 of Kd for RLQMAGVEVR and stop.
Solution: 2.07

Exercise: Specify log10 of Kd for LIIGPMFSGK and stop.
Solution: 3.10

Exercise: Specify log10 of Kd for ILSKIPYLR and stop.
Solution: 0.40

Exercise: Specify log10 of Kd for QILMKTANNY and stop.
Solution: 3.38

Exercise: Specify log10 of Kd for RSNAILHNIY and stop.
Solution: 2.79

Exercise: Specify log10 of Kd for IILFILFFAY and stop.
Solution: 3.12

Exercise: Specify log10 of Kd for IISRTRLYDY and stop.
Solution: 4.12

Exercise: Specify log10 of Kd for AMYYAVLSEY and stop.
Solution: 3.45

Exercise: Specify log10 of Kd for ALYYVHSLLY and stop.
Solution: 4.05

Exercise: Specify log10 of Kd for LIDLAFLIK and stop.
Solution: 3.37

Exercise: Specify log10 of Kd for TSETMYLTMK and stop.
Solution: 3.30

Exercise: Specify log10 of Kd for SSAVVDNKLK and stop.
Solution: 3.18

Exercise: Specify log10 of Kd for SSESLVYGIR and stop.
Solution: 2.89
